IC50 (nM), inhibition of ADAM10 cleavage of the fluorescent substrate PEPDAB064 values for the binders below.
Target: T1, Human ADAM10 from R & D Systems (human, UniProt O14672 214-672)
T1 sequence (looked up): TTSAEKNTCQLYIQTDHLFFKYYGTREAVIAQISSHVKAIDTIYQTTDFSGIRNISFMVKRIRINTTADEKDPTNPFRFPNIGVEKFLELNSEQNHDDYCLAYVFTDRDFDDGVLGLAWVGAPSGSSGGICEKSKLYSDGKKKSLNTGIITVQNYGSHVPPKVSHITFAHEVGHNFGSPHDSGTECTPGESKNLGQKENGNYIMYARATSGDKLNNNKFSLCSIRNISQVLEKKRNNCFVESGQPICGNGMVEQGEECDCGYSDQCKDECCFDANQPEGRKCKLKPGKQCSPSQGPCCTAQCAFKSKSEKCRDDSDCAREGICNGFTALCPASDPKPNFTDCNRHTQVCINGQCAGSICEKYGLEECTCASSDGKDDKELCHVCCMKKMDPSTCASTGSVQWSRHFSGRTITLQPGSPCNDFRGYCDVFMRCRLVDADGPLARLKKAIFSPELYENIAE
Assay: cell-based or functional assay
Express it in nM; write the number only.

Previously resolved entries follow.
[
  {
    "Binder": "SEQ ID NO: 68 (R26A; R55A; C151S) (peptide) NPLNKYIRHYEGLSYNVDSLHQKHQAAKRAVSHEDQFLRLDFHAHGRHFNLRMKADTSLFSDEFKVETSNKVLDYDTSHIYTGHIYGEEGSFSHGSVIDGRFEGFIQTRGGTFYVEPAERYIKDRTLPFHSVIYHEDDINYPHKYGPQGGSADHSVFERMRKYQMTGVEEVTQIPQAEHAANGPELLRK",
    "Unit abbrev": "nM",
    "Experimental result": 130
  },
  {
    "Binder": "SEQ ID NO: 67 (SEQ ID NO: 1/SEQ ID NO: 2 hybrid; R26A; R52A; C151S) (peptide) NPLNKYIRHYEGLSYNVDSLHQKHQAAKRAVSHEDQFLRLDFHAHGRHFNLAMKRDTSLFSDEFKVETSNKVLDYDTSHIYTGHIYGEEGSFSHGSVIDGRFEGFIQTRGGTFYVEPAERYIKDRTLPFHSVIYHEDDINYPHKYGPQGGSADHSVFERMRKYQMTGVEEGARAHPEKHAASSGPELLRK",
    "Unit abbrev": "nM",
    "Experimental result": 147
  }
]

Q: Requested field: IC50 (nM), inhibition of ADAM10 cleavage of the fluorescent substrate PEPDAB064. Item: SEQ ID NO: 6 (mut2; K28A; K54A; C151S) (peptide) NPLNKYIRHYEGLSYNVDSLHQKHQRAARAVSHEDQFLRLDFHAHGRHFNLRMARDTSLFSDEFKVETSNKVLDYDTSHIYTGHIYGEEGSFSHGSVIDGRFEGFIQTRGGTFYVEPAERYIKDRTLPFHSVIYHEDDINYPHKYGPQGGSADHSVFERMRKYQMTGVEEVTQIPQEEHAANGPELLRK
Ans: 106
